Measured Target: T1, Human CD137 shuffle 3 (amino acids 115-138 replaced by wild boar CD137) (human, amino acids 115-138 from wild …, UniProt Q07011 24-255)
T1 construct: also called shuffle construct 3
T1 chain: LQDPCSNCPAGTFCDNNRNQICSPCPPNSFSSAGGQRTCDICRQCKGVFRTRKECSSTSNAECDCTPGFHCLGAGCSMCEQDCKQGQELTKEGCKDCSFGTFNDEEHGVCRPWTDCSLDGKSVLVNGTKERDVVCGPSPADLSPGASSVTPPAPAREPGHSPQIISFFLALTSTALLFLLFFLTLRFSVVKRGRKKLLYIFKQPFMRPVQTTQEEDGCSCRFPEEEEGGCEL
Assay Method Text: flow cytometry on transfected HEK293T-17 cells, 1 µg/mL antibody
Observed Property: binding result

CD137 antibody clone 010 (rabbit) (antibody, human IgG1, kappa, V domains shown, also called Clone 10; CD137 clone 010) VH: QSVEESGGRLVTPGTPLTLTCTVSGFSLSTYAMIWVRQAPGKGLEWIGVVYDNGYISHATWVKGRFTISKTSTTVGLEITSPTTEDTATYFCARSADGSWSTYFNLWGQGTLVTVSS VL: DIVMTQTPASVEAAVGGTVTIKCQASESISNYLAWYQQKPGQPPKLLIYKASTLASGVSSRFKGSGSGTEFTLTISDLESADAATYYCQTNYCCSSSDNGFAFGGGTEVVVKR ... binds

Origin of measurements: patent US20210317225A1
